- System: Mus musculus
- assay-method-text: Neurotoxicity in ip dosed CF1 albino mouse after 0.5 hrs by rotarod test
- Type: toxicity, organism-based
- test-context: in vivo
reported-endpoint: Activity (mg/kg)
Answer with a number only, understood to be in mg/kg.

Worked set:
| compound | numeric-readout |
| --- | --- |
| N=c1snc(Nc2cccnc2)n1-c1cccnc1 | 100 |
| N=c1snc(N)n1-c1ccc(Cl)cc1 | 100 |
| N=c1snc(N)n1-c1ncccn1 | 100 |
| N=c1snc(Nc2ccc(F)cc2)n1-c1ccc(F)cc1 | 300 |

Activity reported for this compound CCOc1ccc(Nc2nsc(=N)n2-c2ccc(OCC)cc2)cc1 : 300

Activity reported for this compound N=c1snc(Nc2ccccn2)n1-c1ccccn1 : 100

Activity reported for this compound N=c1snc(N)n1-c1ccccn1 : 100

Activity reported for this compound N=c1snc(N)n1-c1cccc2ccccc12 : 300

Activity reported for this compound N=c1snc(Nc2ccncc2)n1-c1ccncc1 : 100

###

- Test system: Mus musculus
- assay-method-text: Neurotoxicity in ip dosed CF1 albino mouse after 4 hrs by rotarod test
- Assay type: toxicity, organism-based
- test-context: in vivo
The compounds listed here are annotated with their Activity.
Answer with a number only, understood to be in mg/kg.

Worked set:
| compound | study-system | result-unit | numeric-readout |
| --- | --- | --- | --- |
| O=C1NC(=O)C(c2ccccc2)(c2ccccc2)N1 | Mus musculus | mg/kg | 100 |
| NC(=O)N1c2ccccc2C=Cc2ccccc21 [CARBAMAZEPINE] | Mus musculus | mg/kg | 300 |
| N=c1snc(N)n1-c1cccc2ccccc12 | Mus musculus | mg/kg | 300 |

The measured Activity that N=c1snc(Nc2ccccn2)n1-c1ccccn1 showed for Mus musculus is 300

###

- System: Mus musculus
- assay-method-text: Anticonvulsant activity in ip dosed CF1 albino mouse assessed as prevention of maximal electroshock-induced seizures after 4 hrs
- Assay type: functional
reported-endpoint: Activity (mg/kg)
Answer with a number only, understood to be in mg/kg.

Worked set:
| compound | numeric-readout |
| --- | --- |
| O=C1NC(=O)C(c2ccccc2)(c2ccccc2)N1 [PHENYTOIN] | 100 |
| N=c1snc(N)n1-c1ccc(F)cc1 | 300 |
| N=c1snc(Nc2cccc3ccccc23)n1-c1cccc2ccccc12 | 300 |
| CCOc1ccc(Nc2nsc(=N)n2-c2ccc(OCC)cc2)cc1 | 300 |

Activity reported for this compound N=c1snc(Nc2ccc(F)cc2)n1-c1ccc(F)cc1 : 300
